The molecules listed here are annotated with their pKi.
Target: purified human Factor XIa (Homo sapiens (Human), UniProt P03951)
Sequence (P03951 388-625): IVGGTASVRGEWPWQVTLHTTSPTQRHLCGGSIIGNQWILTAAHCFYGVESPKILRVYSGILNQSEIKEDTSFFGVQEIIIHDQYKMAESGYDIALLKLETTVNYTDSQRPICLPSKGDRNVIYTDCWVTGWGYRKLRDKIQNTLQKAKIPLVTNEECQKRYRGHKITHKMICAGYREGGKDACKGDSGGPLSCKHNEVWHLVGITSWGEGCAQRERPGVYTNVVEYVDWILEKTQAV
Sequence (P03951 19-387 partner): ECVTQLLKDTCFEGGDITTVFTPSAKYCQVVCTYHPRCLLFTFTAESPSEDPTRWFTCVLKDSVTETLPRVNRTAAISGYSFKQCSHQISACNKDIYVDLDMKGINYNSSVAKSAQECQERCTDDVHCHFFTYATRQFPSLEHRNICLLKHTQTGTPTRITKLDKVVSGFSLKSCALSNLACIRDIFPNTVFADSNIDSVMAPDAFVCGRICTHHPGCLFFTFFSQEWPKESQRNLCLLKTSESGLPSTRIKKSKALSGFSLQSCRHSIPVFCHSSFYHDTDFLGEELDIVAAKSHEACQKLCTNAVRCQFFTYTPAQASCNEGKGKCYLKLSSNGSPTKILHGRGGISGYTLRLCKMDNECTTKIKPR
Test: Factor XIa chromogenic substrate (S-2366) inhibition assay
Assay type: biochemical
Settings: substrate S-2366, activity ranges, Table A
pKi: −log10 of the molar value. Where a name gives a salt, the structure may show the parent alone.

molecule	pKi
CCOC(=O)c1ccc(NC(=O)[C@@H]2c3cccc(N4CCN(C)CC4)c3CC(C)(C)N2C(=O)/C=C/c2c(-n3cnnn3)ccc(Cl)c2F)cc1 [Example 203]	8.00 to 8.30
CN(C)[C@H]1CCN(c2cccc3c2CCN(C(=O)/C=C/c2c(-n4cnnn4)ccc(Cl)c2F)[C@H]3C(=O)Nc2ccc(C(=O)O)cc2)C1 [Example 208, bis-TFA salt]	> 8.30
CN1CCN(c2cccc3c2CCN(C(=O)/C=C/c2c(-n4cnnn4)ccc(Cl)c2F)C3C(=O)Nc2ccc(C#N)cc2)CC1 (stereo not drawn) [Example 20]	8.00 to 8.30
